Data origin, for the record: PubChem BioAssay (NCI)

# Tested on: HOP-92 NSCLC
# test-summary: NCI-60 one-dose screen, 48 h (100 = growth as untreated, 0 = no growth, -100 = all killed)
# assay-context: 10 µM unless noted
Compounds without any hit were thinned out: in the full panel of roughly 83,000, 20% have a hit.
property-measured: growth (%)
Express your answer in %, writing the number without its unit.

What value of growth has been reported for the following compound? COc1cc(/C=C/C(=O)c2ccccc2)ccc1Oc1nc(NCCO)nc(N2CCOCC2)n1 90.9

What value of growth has been reported for the following compound? C#Cc1nc(C2=C(C)C(OC(=O)CCC(=O)O)CC2)cs1 (stereo not given) 106

What value of growth has been reported for the following compound? CCN1C(=S)N(c2ccccc2)C2NC(=O)N(/N=C/C=C/c3ccccc3OC)C21 (stereo not given) 72.3

What value of growth has been reported for the following compound? Cc1cc2nc3c4cc(Cl)ccc4n(CC(=S)NCCN(C)C)c3nc2cc1C -6.84

What value of growth has been reported for the following compound? COc1cc(OC)c(C2SCC(=O)N2Nc2ncnc3ccccc23)cc1OC (stereo not given) 147

What value of growth has been reported for the following compound? COc1ccc2[nH]cc(-c3cc(N)n4nc(-c5c[nH]c6ccc(OC)cc56)cc4n3)c2c1 79.1

What value of growth has been reported for the following compound? COc1ccc(NC2=C(Cl)C(=O)C(C)=C(C)C2=O)cc1OC 130

What value of growth has been reported for the following compound? N#Cc1c(-c2ccc(Cl)cc2)nc(SCc2ccc([N+](=O)[O-])cc2)nc1N1CCNCC1 -8.29

What value of growth has been reported for the following compound? NS(=O)(=O)c1cccc(Nc2nc(SCC(=O)c3ccc(Br)cc3)nc3ccccc23)c1 38.2

What value of growth has been reported for the following compound? CNC(=O)c1cc(-c2ccc(NC(=O)Nc3ccc(N4CCOCC4)c(C(F)(F)F)c3)cc2)nc2cccnc12 57.2

What value of growth has been reported for the following compound? O=C(CCN1C(=O)/C(=C/c2ccccc2)SC1=S)N1CCOCC1 94.6

What value of growth has been reported for the following compound? Cn1ccnc1C(=O)/C=C/c1ccc(NC(=O)Nc2ccc(Cl)cc2)cc1 104

What value of growth has been reported for the following compound? COc1ccc(/C=C2\SC(=Nc3cc(C)[nH]n3)NC2=O)cc1 68.5

What value of growth has been reported for the following compound? NS(=O)(=O)c1ccc(Nc2nc(SCC(=O)c3ccc(Cl)cc3)nc3ccccc23)cc1 84.4

What value of growth has been reported for the following compound? C/C(=N/NC(N)=S)c1ccc(Nc2nc(SCC(C)C)nc(-c3ccc(F)cc3)c2C#N)cc1 -39.1

What value of growth has been reported for the following compound? Cc1nc2cnc(N)c(C#Cc3cncc(C(=O)Nc4ccc(Cl)c(C(F)(F)F)c4)c3)c2nc1C -23.9

What value of growth has been reported for the following compound? COc1ccc(-c2cc(C(=O)N=Nc3c(O)[nH]c4ccccc34)c3ccccc3n2)cc1OC 89.5

What value of growth has been reported for the following compound? CC(C)(C)Nc1nc2c(OCCc3ccccc3)cccn2c1-c1ccccc1Cl -74.8

What value of growth has been reported for the following compound? Fc1ccc(-c2cc3nc(C(Cl)Cl)nc(-c4ccc(Cl)cc4)n3n2)cc1 24.7

What value of growth has been reported for the following compound? O=C(N/N=C/c1ccco1)c1[nH]c2ccc(Br)cc2c1-c1ccccc1 48.7
